- tested.on: AgDOP2 (Anopheles gambiae, UniProt A0A1W5KQ45)
- Sequence (A0A1W5KQ45 1-495): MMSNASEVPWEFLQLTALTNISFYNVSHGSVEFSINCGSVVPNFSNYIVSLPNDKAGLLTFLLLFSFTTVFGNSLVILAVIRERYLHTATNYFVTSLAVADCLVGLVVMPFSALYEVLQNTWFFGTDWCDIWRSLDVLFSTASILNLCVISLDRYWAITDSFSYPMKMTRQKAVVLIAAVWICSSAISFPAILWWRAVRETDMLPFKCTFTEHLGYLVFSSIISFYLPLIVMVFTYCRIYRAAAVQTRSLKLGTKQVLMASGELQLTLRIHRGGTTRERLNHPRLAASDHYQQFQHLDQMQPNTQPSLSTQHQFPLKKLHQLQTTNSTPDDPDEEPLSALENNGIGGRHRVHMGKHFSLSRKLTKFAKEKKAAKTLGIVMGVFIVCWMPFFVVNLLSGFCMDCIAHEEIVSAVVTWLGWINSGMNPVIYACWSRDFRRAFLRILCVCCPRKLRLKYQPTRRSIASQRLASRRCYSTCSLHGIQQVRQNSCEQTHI
- test.description: IP-One HTRF IP1 accumulation, inhibition of dopamine response, HEK-293
- Format: cell-based
measure.name: IC50 (nM)
Report the value in nM with no unit label.

| molecule | tested.on | recorded.number |
| --- | --- | --- |
| CN1CCc2cc(Cl)c(O)cc2[C@@H](c2ccccc2)C1 [SCH23390] | AgDOP2 (Anopheles gambiae, UniProt A0A1W5KQ45) | 3600 |

### Prompt Record request: IC50 value, item CN1CC2c3ccccc3Oc3ccc(Cl)cc3C2C1 (stereo not drawn) [Asenapine]
### Response 0.7

### Prompt Entry CSc1ccc2c(c1)C(N1CCN(C)CC1)Cc1ccccc1S2 (stereo not drawn) [Methiothepin] please
### Response 140

### Prompt Entry CN(C)CC/C=C1/c2ccccc2Sc2ccc(Cl)cc21 [Chlorprothixene] please
### Response 400

### Prompt Entry CN(C)CCC=C1c2ccccc2CCc2ccccc21 [Amitriptyline] please
### Response 230

### Prompt Entry CCNC(=O)N1CCN(CCCC(c2ccc(F)cc2)c2ccc(F)cc2)CC1 [Amperozide] please
### Response 18800

====

- tested.on: AaDOP2 (Aedes aegypti)
- Construct: receptor expressed in HEK-293 cells, from authors' previous work
- Sequence (H6D5H2 1-476): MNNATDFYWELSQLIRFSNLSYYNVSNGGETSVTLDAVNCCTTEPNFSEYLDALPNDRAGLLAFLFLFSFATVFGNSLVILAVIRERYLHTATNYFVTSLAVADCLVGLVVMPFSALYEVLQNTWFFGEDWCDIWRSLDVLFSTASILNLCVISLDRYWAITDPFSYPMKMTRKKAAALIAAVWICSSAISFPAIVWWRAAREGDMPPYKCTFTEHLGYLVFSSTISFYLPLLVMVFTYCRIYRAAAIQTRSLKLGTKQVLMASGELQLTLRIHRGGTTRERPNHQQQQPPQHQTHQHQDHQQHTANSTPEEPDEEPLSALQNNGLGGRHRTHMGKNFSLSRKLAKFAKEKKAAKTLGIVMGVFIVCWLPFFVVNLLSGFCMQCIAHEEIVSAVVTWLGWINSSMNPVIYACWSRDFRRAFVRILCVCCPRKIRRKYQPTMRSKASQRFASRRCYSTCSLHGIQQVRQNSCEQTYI
- test.description: IP-One HTRF IP1 accumulation, inhibition of dopamine response, HEK-293
measure.name: pIC50
For clarity, pIC50 is expressed as the negative log10 of concentration in mol/L.

Solved cases (4 shown):
| compound | tested.on | pIC50 |
| --- | --- | --- |
| CN1CC2c3ccccc3Oc3ccc(Cl)cc3C2C1 (centres unmarked) | AaDOP2 (Aedes aegypti) | 8.52 |
| CCNC(=O)N1CCN(CCCC(c2ccc(F)cc2)c2ccc(F)cc2)CC1 [Amperozide] | AaDOP2 (Aedes aegypti) | 5.29 |
| CN(C)CCC=C1c2ccccc2CCc2ccccc21 | AaDOP2 (Aedes aegypti) | 7.30 |
| CSc1ccc2c(c1)C(N1CCN(C)CC1)Cc1ccccc1S2 (centres unmarked) [Methiothepin] | AaDOP2 (Aedes aegypti) | 8.52 |

### Prompt Record request: pIC50 value, item `CN1CCc2cc(Cl)c(O)cc2[C@@H](c2ccccc2)C1`
### Response 5.33

====

- tested.on: AgDOP2 (Anopheles gambiae)
- test.description: IP-One HTRF IP1 accumulation, agonist stimulation, HEK-293
measure.name: pEC50
For clarity, pEC50 is expressed as the negative log10 of concentration in mol/L.

### Prompt Record request: pEC50 value, item `NCCc1ccc(O)c(O)c1`
### Response 5.33

====

- tested.on: CqDOP2 (Culex quinquefasciatus, UniProt A0A0B5H0X6)
- Construct: receptor expressed in HEK-293 cells, from authors' previous work
- Sequence (A0A0B5H0X6 1-479): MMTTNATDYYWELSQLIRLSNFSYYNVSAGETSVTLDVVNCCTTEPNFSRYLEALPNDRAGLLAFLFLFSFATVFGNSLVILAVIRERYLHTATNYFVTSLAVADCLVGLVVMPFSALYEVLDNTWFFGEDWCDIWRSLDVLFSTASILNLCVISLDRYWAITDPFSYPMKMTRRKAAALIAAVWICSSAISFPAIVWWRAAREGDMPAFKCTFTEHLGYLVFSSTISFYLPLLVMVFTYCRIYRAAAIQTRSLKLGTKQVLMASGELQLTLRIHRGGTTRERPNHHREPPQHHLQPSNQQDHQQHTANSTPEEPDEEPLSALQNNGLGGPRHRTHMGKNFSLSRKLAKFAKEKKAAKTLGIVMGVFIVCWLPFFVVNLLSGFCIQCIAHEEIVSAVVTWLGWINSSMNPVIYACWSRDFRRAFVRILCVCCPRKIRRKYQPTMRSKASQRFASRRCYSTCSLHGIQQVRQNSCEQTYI
- test.description: IP-One HTRF IP1 accumulation, inhibition of dopamine response, HEK-293
measure.name: IC50 (µM)
Report the value in µM with no unit label.

| compound | unit.info | recorded.number |
| --- | --- | --- |
| CCNC(=O)N1CCN(CCCC(c2ccc(F)cc2)c2ccc(F)cc2)CC1 [Amperozide] | µM | 2.6 |

### Prompt Record request: IC50 value, item CN(C)CCC=C1c2ccccc2CCc2ccccc21 [Amitriptyline]
### Response 0.08

### Prompt Entry CN1CCc2cc(Cl)c(O)cc2[C@@H](c2ccccc2)C1 [SCH23390] please
### Response 8.3

### Prompt Entry CN1CC2c3ccccc3Oc3ccc(Cl)cc3C2C1 (stereo not drawn) [Asenapine] please
### Response 0.02

### Prompt Entry CN(C)CC/C=C1/c2ccccc2Sc2ccc(Cl)cc21 [Chlorprothixene] please
### Response 0.01

### Prompt Entry CSc1ccc2c(c1)C(N1CCN(C)CC1)Cc1ccccc1S2 (stereo not drawn) [Methiothepin] please
### Response 0.01
